# Tested on: NCI-H522 lung
# procedureSummary: NCI tumour cell line growth inhibition, 48 h
measure: GI50

- compoundStructureString: "Oc1ccc2c(=S)cc(-c3ccc(Br)cc3)oc2c1O"
  measure: "GI50"
  result: "1160 nM"
- compoundStructureString: "COc1cccc2c1C(=O)c1c(O)c3c(c(O)c1C2=O)C[C@@](O)(/C(CO)=N/NC(=O)CCCCCN1C(=O)C=CC1=O)C[C@@H]3O[C@H]1C[C@H](N)[C@H](O)[C@H](C)O1"
  measure: "GI50"
  result: "560 nM"
- compoundStructureString: "COC(=O)[C@H](Cc1cn(C)cn1)NC(=O)[C@H](CC(=O)OCc1ccccc1)NC(=O)Nc1cc(C(F)(F)F)cc(C(F)(F)F)c1"
  measure: "GI50"
  result: "8530 nM"

Turning now to a further record.
Problem: Could you tell me which GI50 is on file for "CN(C)c1ccc(/C=C(\C#N)c2cc3ccccc3[nH]2)cc1" ?
Solution: 542 nM

====

# Test system: SF-539 CNS
# procedureSummary: NCI tumour cell line growth inhibition, 48 h
Let's look at some molecules and their measured GI50.

- compoundStructureString: "NC(=O)c1c(NC(=O)c2cccs2)sc2c1CCC(=O)C2"
  result: "1540 nM"
- compoundStructureString: "COc1cccc(Nc2ncnc3cc(NC(=O)CCl)ccc23)c1"
  result: "1520 nM"
- compoundStructureString: "Oc1ccc2c(=S)cc(-c3ccc(Br)cc3)oc2c1O"
  result: "1980 nM"
- compoundStructureString: "CCN(CC)CCNC(=O)c1cccc2c1-c1ccccc1C2=O"
  result: "95100 nM"
- compoundStructureString: "NCCCNc1nc2ccccc2c2c(=O)c3cc(F)ccc3sc12"
  result: "1710 nM"

Problem: Tell me the measured GI50 of "COC(=O)c1c[nH]c2cc(OC(C)C)c(OC(C)C)cc2c1=O" , please.
Solution: > 100000 nM

Problem: Look at this molecule and give its reported GI50. "c1ccc(-c2[nH]ncc2-c2ccnc(-c3ccc(OCCN4CCOCC4)cc3)c2)nc1"
Solution: > 25000 nM

Problem: Data request, read-out GI50, for "C=C1C(=O)O[C@H]2[C@H]1CC/C(COC(=O)c1cccnc1N)=C\CC[C@@]1(C)O[C@@H]21"
Solution: 2560 nM

Problem: Any idea what its GI50 is? The molecule is "COc1ccc(Oc2nc3cc(N)cc(N)c3nc2-c2ccccc2)cc1"
Solution: 23300 nM

Problem: Returns the measured GI50 for the input molecule. Input: "CC[C@@H](C)/C=C(C)/C=C/C(=O)c1c(O)c(-c2ccc(OC(=O)[C@@]34CC[C@@](C)(C(=O)O3)C4(C)C)cc2)cn(O)c1=O"
Solution: 1300 nM

====

Form field: TGI (one value per entry).
# Test system: K-562 leukemia
# procedureSummary: NCI tumour cell line growth inhibition, 48 h
Please state the figure in µM; there is no need to write the unit.

// below: answered compounds
- compound: "C=C1C(=O)O[C@H]2[C@H]1CC/C(COC(=O)c1cccnc1N)=C\\CC[C@@]1(C)O[C@@H]21"
  TGI / µM: 14.1
- compound: "Cc1c(C(=O)c2ccccc2)[n+](=O)c2cc(Cl)c(Cl)cc2n1[O-]"
  TGI / µM: 17.8

Please examine the following record next.
Problem: If you can, please state the reported TGI value of C=CCCCCCCCCCP(=O)(c1ccccc1)c1ccc2c(c1)OCCOCCOCCOCCO2 (stereo not given) .
Solution: 24.6

====

# Test system: KM12 colon
# procedureSummary: NCI tumour cell line growth inhibition, 48 h
Listed here are molecules together with their documented TGI.

Example entries begin here.
- molecule: "COC(=O)C1C(C(=O)O)C2(c3ccccc3)C(=O)C1(c1ccccc1)C(c1ccccc1)=C2c1ccccc1 (stereo not given)"
  result: "38 µM"
- molecule: "CCO/C(O)=C(/C(=N)N1CCOCC1)C(=O)NC(C)C"
  result: "> 100 µM"
- molecule: "C/C=C/c1cc2c(cc1O)CC[C@@H]1[C@@H]2CC[C@]2(C)[C@@H](O)CC[C@@H]12"
  result: "13.4 µM"

Problem: Form field - read-out: TGI; system: KM12 colon; submitted item: "CCOP(=O)(C/C=C/Cn1ncc(=O)[nH]c1=O)OCC"
Solution: > 100 µM

Problem: Fill in the recorded TGI for this molecule, with KM12 colon as test system: "COC(=O)[C@]12CC[C@@H](C)[C@H](C)[C@@H]1C1=CC[C@@H]3[C@@]4(C)C(C=O)=C[C@@](C)(CO)[C@@H]4[C@H](O)C[C@@]3(C)[C@]1(C)CC2"
Solution: 15.3 µM

Problem: Recorded TGI for "C=C1N(S(=O)(=O)c2ccc(C)cc2)C(=O)OCC12CCCC2" with KM12 colon, please?
Solution: > 100 µM

====

# System: EKVX NSCLC
# procedureSummary: NCI tumour cell line growth inhibition, 48 h
measure: TGI

Example entries begin here.
- compound: "O=C1C=C(c2ccccc2)OC1C1Sc2ccccc2NC1=O (configuration not stated)"
  TGI: "> 100 µM"
- compound: "Cc1ccc(Nc2cccc3c2C(=O)c2cccc(Nc4ccc(C)cc4S(=O)(=O)O)c2C3=O)c(S(=O)(=O)O)c1"
  TGI: "> 100 µM"
- compound: "COc1ccc(Cc2cc(Cc3ccc(OC)cc3)cc(Cc3ccc(OC)cc3)c2)cc1"
  TGI: "> 100 µM"
- compound: "CCN1CCN(c2nc(C)cc(NCc3cc(Nc4ccnc5cc(Cl)ccc45)ccc3F)n2)CC1"
  TGI: "14 µM"
- compound: "CCN(CC)CCNC(=O)c1cccc2c1-c1ccccc1C2=O"
  TGI: "> 100 µM"
- compound: "COc1ccc(-c2sc(Br)c3c2C(=O)C2OC(=O)NC32)cc1OC (configuration not stated)"
  TGI: "> 100 µM"
- compound: "C#C[C@@]1(O)[C@@H](CO)O[C@@H](n2cc(Br)c3c(Cl)ccnc32)[C@@H]1O"
  TGI: "> 100 µM"
- compound: "COC(=O)C1(C(=O)OC)N=C(C)OC1c1ccccc1O (configuration not stated)"
  TGI: "> 100 µM"

Problem: Given the compound "Cn1c(=O)c2ccccc2[n+]2c(-c3cccc([N+](=O)[O-])c3)csc12" , what is its reported TGI?
Solution: > 100 µM

====

Readings of GI50 for the listed molecules
# System: SK-MEL-5 melanoma
# procedureSummary: NCI tumour cell line growth inhibition, 48 h

- compoundStructureString: "COc1ccc2c(c1)C(=Nc1ccc(F)c(Cl)c1)c1c-2c(Nc2ccc(F)c(Cl)c2)nc2ccccc12"
  assayTarget: "SK-MEL-5 melanoma"
  GI50: "> 100000 nM"

Problem: What value of GI50 has been recorded for this entry: "CCN1CCN(c2nc(C)cc(NCc3cc(Nc4ccnc5cc(Cl)ccc45)ccc3F)n2)CC1"
Solution: 1700 nM

Problem: Could you tell me which GI50 is on file for "COc1cc(-c2nn(-c3ccc(NC(=O)Nc4cc(C(F)(F)F)cc(C(F)(F)F)c4)cc3)cc2-c2ccncc2)ccc1Cl" ?
Solution: 1530 nM

Problem: Fill blank: measured GI50 of the molecule "CCOc1cc(-c2nncn2C)ccc1Nc1ncc2cc(C)nc(NCC(C)(C)C)c2n1" is ____.
Solution: > 24000 nM

====

# System: SNB-19 CNS
# procedureSummary: NCI tumour cell line growth inhibition, 48 h
Each entry below carries its recorded TGI.
Please respond with the number in µM and leave the unit unwritten.

- compound: "CCOC(=O)C1=C(C)N(c2ccc(Cl)cc2)C2(O)C=CC(=O)C3=C(O)c4ccccc4C(=O)C312 (stereo not given)"
  quantitativeResult: 33.1

Below: the item to evaluate.
Problem: Recorded TGI of "C[C@@H]1S[C@H](c2c(F)cccc2Cl)n2c1nc1ccccc12" , please.
Solution: 88.9

====

# Tested on: SN12C renal
# procedureSummary: NCI tumour cell line growth inhibition, 48 h
measure: GI50

- compoundStructureString: "O=C(Nc1nc(-c2ccc(Cl)cc2)cs1)c1cc(O)c(O)c(O)c1"
  measure: "GI50"
  result: "172 µM"
- compoundStructureString: "COc1cccc(Nc2ncnc3cc(NC(=O)CCl)ccc23)c1"
  measure: "GI50"
  result: "1.15 µM"

Problem: Please report the recorded GI50 for "COc1ccc(Oc2nc3cc(N)cc(N)c3nc2-c2ccccc2)cc1" .
Solution: 50.1 µM

Problem: Which measured GI50 value corresponds to "CCOc1cc(-c2nncn2C)ccc1Nc1ncc2cc(C)nc(NCC(C)(C)C)c2n1" ?
Solution: > 100 µM

Problem: Which GI50 is listed for "O=C1/C(=C\c2ccc(F)cc2)CN(C(=O)c2ccccc2F)C/C1=C\c1ccc(F)cc1" ?
Solution: 1.68 µM
